- System: HEK-293T
- PROCEDURE TEXT: Multiplex assay against HEK293T
- Format: toxicity, cell-based
- MEASUREMENT CONTEXT: human, 12 h, 1 µM, compound concentration 1 uM, replicate 1
REPORTED ENDPOINT: Population Normal (%)
State the answer as a number, implicitly in %.

INSERT INTO results (compound, observed) VALUES
  ('CC1=C(C(=O)Nc2cc3cn[nH]c3cc2F)C(c2ccc(C(F)(F)F)cc2)CC(=O)N1 (stereo not drawn)', 92),
  ('CNC(=O)Nc1ccc2c(c1)[C@@]1(CC2)OC(=O)N(CC(=O)N(Cc2ccc(F)cc2)[C@@H](C)C(F)(F)F)C1=O [A-486]', 84),
  ('COc1ccc(-c2ccc3ncc4c(c3c2)n(-c2ccc(N3CCNCC3)c(C(F)(F)F)c2)c(=O)n4C)cn1.O=C(O)/C=C\C(=O)O [BGT-226]', 74);

query: Item Cc1c[nH]c2nccc(Oc3c(F)cc(Nc4cc(Cl)nc(N)n4)cc3F)c12 [BAY-549] has what recorded Population Normal (%)?
result: 87

query: Item CNC(=O)Nc1ccc(-c2nc(N3CC4CCC(C3)O4)c3cnn(C4CCC5(CC4)OCCO5)c3n2)cc1 has what recorded Population Normal (%)?
result: 79

query: Item C[C@]12CC[C@@H]3c4ccc(O)cc4CC[C@H]3[C@@H]1CC[C@@H]2O [ESTRADIOL] has what recorded Population Normal (%)?
result: 85

query: Item COc1cc(Nc2nccc(-c3cnn4nc(OC)ccc34)n2)cc(C(F)(F)F)c1 has what recorded Population Normal (%)?
result: 86

query: Item O=c1[nH]c2ccccc2n1C1CCN(Cc2ccc(-c3[nH]c4cc5ncnc5cc4nc3-c3ccccc3)cc2)CC1 has what recorded Population Normal (%)?
result: 92
